pIC50 by entry:
tested on: Colo205-LUC-TCF/LEF reporter gene; assay: Colo205-LUC-TCF/LEF M1 reporter cell line luciferase inhibition; format: cell-based; conditions: 4 h, 4 hours incubation, firefly luciferase signal
# pIC50: negative log10 of molar concentration; output just the value

Use these answered entries as a reference point.
[2H]C([2H])([2H])N1c2nc(NCc3ccc(Oc4cnc(C(F)(F)F)nc4C)nc3)nc3c2N(CCC3)C(=O)[C@@H]1CO 7.18
Cc1nc(C(F)(F)F)ncc1Oc1ccc(CNc2nc3c4c(n2)N(C)[C@@H]([C@@H](C)O)C(=O)N4CCC3)cn1 7.19
CNc1nc(C(F)(F)F)ccc1Oc1ccc(CNc2nc3c4c(n2)N(C)[C@@](C)(CO)C(=O)N4CCC3)cn1 7.67

The reported pIC50 of the molecule CN1c2nc(NCc3ccc(Oc4ccc(C(F)(F)F)nc4N4CC(F)(F)C4)nc3)nc3c2N(CCC3)C(=O)[C@]1(C)CO was 8.31

pIC50 in this record for Cc1nc(C(F)(F)F)ncc1Oc1ccc(CNc2nc3c4c(n2)N(C)[C@@](C)([C@H](C)O)C(=O)N4CCC3)cn1 : 7.05

Recorded result, [2H]C([2H])([2H])N1c2nc(NCc3ccc(Oc4cnc(C(F)(F)F)nc4C)nc3)nc3c2N(CCC3)C(=O)[C@]1(C)CO , pIC50: 7.29

Given item [2H]C([2H])([2H])N1c2nc(NCc3ccc(Oc4ccc(C(F)(F)F)nc4F)nc3)nc3c2N(CCC3)C(=O)[C@]1(C)CO , the value recorded as its pIC50 is 7.52

Value of pIC50 reported for the molecule [2H]C([2H])([2H])N1c2nc(NCc3ccc(Oc4cnc(C(F)(F)F)nc4C)nc3)nc3c2N(CCC3)C(=O)[C@@H]1[C@@H](C)O is 7.32

pIC50 recorded for this molecule, CN1c2nc(NCc3ccc(Oc4ccc(C(F)(F)F)nc4N4CCCC4)nc3)nc3c2N(CCC3)C(=O)[C@]1(C)CO , is 8.16
